test system: lambsquarters (Chenopodium album, CHEAL); test: Pre-emerge test, greenhouse herbicide activity screening; type: in vivo; conditions: pre-emerge, rate 250 g ai/ha, phytotoxicity rating 0-100 at 14 days after application
Task for the reader: assign each of the following compounds its reported Pre-emerge Herbicidal Activity CHEAL.
I'd appreciate a reply containing only the number, no unit.

Query: Any idea what its Pre-emerge Herbicidal Activity CHEAL is? The compound is Nc1c(OC2CCCC2)c(Cl)cc(F)c1N1C(=O)C2=C(CCCC2)C1=O [Compound 8-5]
Reply: 80

Query: Any idea what its Pre-emerge Herbicidal Activity CHEAL is? The compound is Cc1c(Cl)cc(F)c(-n2c(=O)cc(C(F)(F)F)n(C)c2=O)c1NC(=O)SCc1ccccc1 [4-66]
Reply: 100

Query: Any idea what its Pre-emerge Herbicidal Activity CHEAL is? The compound is COc1c(Cl)cc(F)c(N2C(=O)C3=C(CCCC3)C2=O)c1N [8-7]
Reply: 100

* * *

Task for the reader: assign each of the following compounds its reported phytotoxicity rating CORN.
system: field corn (Zea mays L., var. Dekalb 535, CORN); assay: Post-emerge test, crop safety; type: in vivo; conditions: post-emerge, 63 g ai/ha, 14 days after application, rating scale 0-100
I'd appreciate a reply containing only the number, no unit.

Query: Any idea what its phytotoxicity rating CORN is? The compound is Cn1c(C(F)(F)F)cc(=O)n(-c2c(F)cc(Cl)c(OCC#N)c2NC(=O)CCc2ccccc2)c1=O
Reply: 30

Query: Any idea what its phytotoxicity rating CORN is? The compound is COc1c(Cl)cc(F)c(-n2c(=O)cc(C(F)(F)F)n(C)c2=O)c1NC(=O)COCc1ccccc1
Reply: 0

Query: Any idea what its phytotoxicity rating CORN is? The compound is COc1c(Cl)cc(F)c(-n2c(=O)cc(C(F)(F)F)n(C)c2=O)c1NC(=O)c1cc(F)cc(F)c1
Reply: 10

Query: Any idea what its phytotoxicity rating CORN is? The compound is COc1c(Cl)cc(F)c(-n2c(=O)cc(C(F)(F)F)n(C)c2=O)c1NC(=O)c1ccccc1F
Reply: 20

Query: Any idea what its phytotoxicity rating CORN is? The compound is COc1c(Cl)cc(F)c(-n2c(=O)cc(C(F)(F)F)n(C)c2=O)c1NC(=O)CCc1ccccc1
Reply: 90

Query: Any idea what its phytotoxicity rating CORN is? The compound is COc1c(Cl)cc(F)c(-n2c(=O)cc(C(F)(F)F)n(N)c2=O)c1NC(=O)c1ccc2ccccc2c1
Reply: 0

Query: Any idea what its phytotoxicity rating CORN is? The compound is COc1c(Cl)cc(F)c(-n2c(=O)cc(C(F)(F)F)n(C)c2=O)c1NC(=O)C=Cc1ccco1
Reply: 0

Query: Any idea what its phytotoxicity rating CORN is? The compound is COc1c(Cl)cc(F)c(-n2c(=O)cc(C(F)(F)F)n(C)c2=O)c1NC(=O)c1cccnc1
Reply: 20

Query: Any idea what its phytotoxicity rating CORN is? The compound is COc1c(Cl)cc(F)c(-n2c(=O)cc(C(F)(F)F)n(C)c2=O)c1NC(=O)c1ccc(C#N)cc1
Reply: 20

Query: Any idea what its phytotoxicity rating CORN is? The compound is COc1c(Cl)cc(F)c(-n2c(=O)cc(C(F)(F)F)n(C)c2=O)c1NC(=O)c1ccc(Cl)cc1Cl
Reply: 40

Query: Any idea what its phytotoxicity rating CORN is? The compound is COc1c(Cl)cc(F)c(-n2c(=O)cc(C(F)(F)F)n(C)c2=O)c1NC(=O)c1ccc(I)cc1
Reply: 15

* * *

test system: upland rice (Oryza sp., var. Tebonnet, RICE); assay: Pre-emerge test, crop safety; format: in vivo; details: 250 g ai/ha; pre-emerge; rated 14 days after application; 0 = no damage, 100 = complete death
quantity: Pre-emerge crop damage RICE (phytotoxicity rating, scale 0-100)
I'd appreciate a reply containing only the number, no unit.

Query: Any idea what its Pre-emerge crop damage RICE (phytotoxicity rating, scale 0-100) is? The molecule is COc1c(Cl)cc(F)c(-n2c(=O)cc(C(F)(F)F)n(C)c2=O)c1NC(C)=O
Reply: 90

Query: Any idea what its Pre-emerge crop damage RICE (phytotoxicity rating, scale 0-100) is? The molecule is CCc1ccc(C(=O)Nc2c(OC)c(Cl)cc(F)c2-n2c(=O)cc(C(F)(F)F)n(C)c2=O)cc1
Reply: 90

Query: Any idea what its Pre-emerge crop damage RICE (phytotoxicity rating, scale 0-100) is? The molecule is C=Cc1ccc(C(=O)Nc2c(OC)c(Cl)cc(F)c2-n2c(=O)cc(C(F)(F)F)n(C)c2=O)cc1
Reply: 90

* * *

tested on: field corn (Zea mays L., var. Dekalb 535, CORN); assay: Post-emerge test, crop safety; assay type: in vivo; settings: post-emerge, 250 g ai/ha, 14 days after application, rating scale 0-100
quantity: CORN phytotoxicity rating (crop damage)
I'd appreciate a reply containing only the number, no unit.

Query: Any idea what its CORN phytotoxicity rating (crop damage) is? The compound is COc1c(Cl)cc(F)c(-n2c(=O)cc(C(F)(F)F)n(C)c2=O)c1NC(=O)CCc1ccccc1C
Reply: 100

Query: Any idea what its CORN phytotoxicity rating (crop damage) is? The compound is COc1c(Cl)cc(F)c(-n2c(=O)cc(C(F)(F)F)n(C)c2=O)c1NC(=O)Cc1ccccc1
Reply: 0

Query: Any idea what its CORN phytotoxicity rating (crop damage) is? The compound is COc1c(Cl)cc(F)c(-n2c(=O)cc(C(F)(F)F)n(C)c2=O)c1NC(=O)c1ccc2c(Br)cccc2c1
Reply: 0

* * *

tested on: upland rice (Oryza sp., var. Tebonnet, RICE); experiment: Post-emerge test, crop safety; type: in vivo; conditions: post-emerge, 63 g ai/ha, 14 days after application, rating scale 0-100
Task for the reader: assign each of the following molecules its reported phytotoxicity rating RICE (crop damage).

Query: Any idea what its phytotoxicity rating RICE (crop damage) is? The molecule is COc1c(Cl)cc(F)c(-n2c(=O)cc(C(F)(F)F)n(C)c2=O)c1NC(=O)OCc1ccccc1[N+](=O)[O-]
Reply: 40

Query: Any idea what its phytotoxicity rating RICE (crop damage) is? The molecule is Cn1c(C(F)(F)F)cc(=O)n(-c2ccc(Cl)cc2NC(=O)Oc2ccccc2)c1=O
Reply: 0

Query: Any idea what its phytotoxicity rating RICE (crop damage) is? The molecule is Nn1c(C(F)(F)F)cc(=O)n(-c2c(F)cc(Cl)c(O)c2NC(=O)c2ccc3ccccc3c2)c1=O
Reply: 0

Query: Any idea what its phytotoxicity rating RICE (crop damage) is? The molecule is COc1c(Cl)cc(F)c(-n2c(=O)cc(C(F)(F)F)n(C)c2=O)c1NC(=O)OCc1c(F)c(F)c(F)c(F)c1F
Reply: 80

Query: Any idea what its phytotoxicity rating RICE (crop damage) is? The molecule is Cn1c(C(F)(F)F)cc(=O)n(-c2c(F)cc(Cl)c(OCC#N)c2NC(=O)OCc2ccccc2)c1=O
Reply: 60

Query: Any idea what its phytotoxicity rating RICE (crop damage) is? The molecule is COc1c(Cl)cc(F)c(-n2c(=O)cc(C(F)(F)F)n(C)c2=O)c1NC(=O)OCc1cc(C)cc(C)c1
Reply: 10

Query: Any idea what its phytotoxicity rating RICE (crop damage) is? The molecule is COc1c(Cl)cc(F)c(-n2c(=O)cc(C(F)(F)F)n(C)c2=O)c1NC(=O)OCc1ccc(C(C)C)cc1
Reply: 0

* * *

Task for the reader: assign each of the following molecules its reported Pre-emerge Herbicidal Activity RICE.
tested on: upland rice (Oryza sp., var. Tebonnet, RICE); assay: Pre-emerge test, crop safety; type: in vivo; conditions: 250 g ai/ha; crop damage rating 0-100, 14 days after application
I'd appreciate a reply containing only the number, no unit.

Query: Any idea what its Pre-emerge Herbicidal Activity RICE is? The molecule is COc1c(Cl)cc(F)c(-n2c(=O)cc(C(F)(F)F)n(C)c2=O)c1NC(=O)Nc1ccccc1 [Compound 3-4]
Reply: 15

Query: Any idea what its Pre-emerge Herbicidal Activity RICE is? The molecule is COc1c(Cl)cc(F)c(-n2c(=O)cc(C(F)(F)F)n(C)c2=O)c1NC(=O)OCc1ccc2ccccc2c1 [4-28]
Reply: 15

Query: Any idea what its Pre-emerge Herbicidal Activity RICE is? The molecule is Cn1c(C(F)(F)F)cc(=O)n(-c2c(F)cc(Cl)c(OCC#N)c2NC(=O)c2ccc3ccccc3c2)c1=O [2-200]
Reply: 100

Query: Any idea what its Pre-emerge Herbicidal Activity RICE is? The molecule is COc1c(Cl)cc(F)c(-n2c(=O)cc(C(F)(F)F)n(C)c2=O)c1NC(=O)OCc1c(Cl)cccc1Cl [4-24]
Reply: 50

Query: Any idea what its Pre-emerge Herbicidal Activity RICE is? The molecule is COc1ccc(COC(=O)Nc2c(OC)c(Cl)cc(F)c2-n2c(=O)cc(C(F)(F)F)n(C)c2=O)cc1 [4-40]
Reply: 70

Query: Any idea what its Pre-emerge Herbicidal Activity RICE is? The molecule is Cc1ccc(OC(=O)Nc2c(C)c(Cl)cc(F)c2-n2c(=O)cc(C(F)(F)F)n(C)c2=O)cc1C [4-53]
Reply: 50

Query: Any idea what its Pre-emerge Herbicidal Activity RICE is? The molecule is COc1c(Cl)cc(F)c(-n2c(=O)cc(C(F)(F)F)n(C)c2=O)c1NC(=O)OC(c1ccccc1)C1CC1 (centres unmarked) [4-46]
Reply: 50

Query: Any idea what its Pre-emerge Herbicidal Activity RICE is? The molecule is CCOC(=O)C(C)Oc1c(Cl)cc(F)c(-n2c(=O)cc(C(F)(F)F)n(C)c2=O)c1NC(=O)c1ccc2ccccc2c1 (centres unmarked) [2-191]
Reply: 20

Query: Any idea what its Pre-emerge Herbicidal Activity RICE is? The molecule is COc1c(Cl)cc(F)c(-n2c(=O)cc(C(F)(F)F)n(C)c2=O)c1NC(=O)OCc1ccccc1C(F)(F)F [4-33]
Reply: 40

Query: Any idea what its Pre-emerge Herbicidal Activity RICE is? The molecule is Cn1c(C(F)(F)F)cc(=O)n(-c2ccc(Cl)cc2NC(=O)Oc2ccccc2)c1=O [4-50]
Reply: 10

Query: Any idea what its Pre-emerge Herbicidal Activity RICE is? The molecule is COc1c(Cl)cc(F)c(-n2c(=O)cc(C(F)(F)F)n(C)c2=O)c1NC(=O)OCc1cc(F)ccc1F [4-39]
Reply: 80
